TARGET: human EP4 (Homo sapiens)
Construct: expressed in transfected cells; host or cells: HEK293 cells transduced with EP4 BacMam virus (virus generated in SF9 cells)
Sequence (P35408 whole entry): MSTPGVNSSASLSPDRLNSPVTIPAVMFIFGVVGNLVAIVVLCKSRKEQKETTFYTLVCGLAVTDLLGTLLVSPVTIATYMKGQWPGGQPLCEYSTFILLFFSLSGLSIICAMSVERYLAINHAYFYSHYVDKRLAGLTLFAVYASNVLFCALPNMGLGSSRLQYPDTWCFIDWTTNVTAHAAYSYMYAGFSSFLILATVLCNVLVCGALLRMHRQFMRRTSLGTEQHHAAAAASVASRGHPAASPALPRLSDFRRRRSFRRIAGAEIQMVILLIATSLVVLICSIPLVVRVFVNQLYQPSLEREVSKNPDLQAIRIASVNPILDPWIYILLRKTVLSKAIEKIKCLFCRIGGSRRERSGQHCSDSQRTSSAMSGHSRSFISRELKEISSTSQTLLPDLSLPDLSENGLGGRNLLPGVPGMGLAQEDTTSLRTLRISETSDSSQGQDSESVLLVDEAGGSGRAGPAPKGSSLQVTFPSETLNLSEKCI
METHOD SUMMARY: cAMP Gs functional assay (HTRF cAMP dynamic-2) in HEK293 cells transfected with EP4 Bacmam virus
Assay type: cell-based
MEASUREMENT CONDITIONS: HEK293 cells expressing human EP4, 30 mins at 37° C., mid-point of the curve; read-out: cAMP human EP4 pEC50 (converted)
PARAMETER MEASURED: log10(EC50) (log10 of the value in nM)
Use the decimal logarithm of EC50 (nM).

Query: Given the molecule Cc1cc(S(N)(=O)=O)ccc1-c1cccc(C(O)CCN2CCC(=O)N2CCc2ccc(C(=O)O)cc2)c1 (single isomer, unassigned) [3; isomer 1] , what is its reported log10(EC50)?
Result: 1.60

Query: Given the molecule Cc1cc(S(N)(=O)=O)ccc1-c1cccc(C(O)CCN2CCC(=O)N2CCc2cc(F)c(C(=O)O)c(F)c2)c1 (single isomer, unassigned) [8; isomer 2] , what is its reported log10(EC50)?
Result: 1.50

Query: Given the molecule Cc1cc(OS(N)(=O)=O)ccc1-c1cccc(C(O)CCN2CCC(=O)N2CCc2ccc(C(=O)O)cc2)c1 (single isomer, unassigned) [4; isomer 2] , what is its reported log10(EC50)?
Result: 0.40

Query: Given the molecule Cc1cc(O)ccc1-c1cccc(C(O)CCN2CCC(=O)N2CCc2ccc(C(=O)O)cc2)c1 (single isomer, unassigned) [1; isomer 1] , what is its reported log10(EC50)?
Result: 1.70

Query: Given the molecule Cc1cc(OS(N)(=O)=O)ccc1-c1cccc(C(O)CCN2CCC(=O)N2CCc2ccc(C(=O)O)cc2)c1 (single isomer, unassigned) [4; isomer 1] , what is its reported log10(EC50)?
Result: 2.40

Query: Given the molecule Cc1cc(C(N)=O)ccc1-c1cccc(C(O)CCN2CCC(=O)N2CCc2cc(F)c(C(=O)O)c(F)c2)c1 (racemic) [5; racemate] , what is its reported log10(EC50)?
Result: 1.70

* * *

TARGET: human EP4 (Homo sapiens)
Construct: expressed in transfected cells; host or cells: HEK293 cells transduced with EP4 BacMam virus (virus generated in SF9 cells)
METHOD SUMMARY: cAMP Gs functional assay (HTRF cAMP dynamic-2) in HEK293 cells transfected with EP4 Bacmam virus
Format: cell-based
MEASUREMENT CONDITIONS: HEK293, HEK293 cells expressing human EP4; positive control 10 μM PGE2
PARAMETER MEASURED: Emax (%)
// units = %; emit number, no label

Query: Given the compound Cc1cc(C(N)=O)ccc1-c1cccc(C(O)CCN2CCC(=O)N2CCc2ccc(C(=O)O)cc2)c1 (racemic) [2; racemate] , what is its reported Emax?
Result: 99

Query: Given the compound Cc1cc(OS(N)(=O)=O)ccc1-c1cccc(C(O)CCN2CCC(=O)N2CCc2ccc(C(=O)O)cc2)c1 (single isomer, unassigned) [4; isomer 1] , what is its reported Emax?
Result: 93

Query: Given the compound Cc1cc(S(N)(=O)=O)ccc1-c1cccc(C(O)CCN2CCC(=O)N2CCc2ccc(C(=O)O)cc2)c1 (single isomer, unassigned) [3; isomer 1] , what is its reported Emax?
Result: 93

* * *

Test system: Caco-2 cells
METHOD SUMMARY: Unidirectional Caco-2 cell permeability assay
Format: in vitro ADME
MEASUREMENT CONDITIONS: 10 μM, apical pH 6.5, basolateral pH 7.4, 1 hour, 37° C., n=2
Please go through the items and note down their Caco-2 Mean Papp A-B.

Query: Given the molecule Cc1cc(OS(N)(=O)=O)ccc1-c1cccc(C(O)CCN2CCC(=O)N2CCc2ccc(C(=O)O)cc2)c1 (single isomer, unassigned) [4; isomer 1] , what is its reported Caco-2 Mean Papp A-B?
Result: 0.3 10^−6 cm/s

Query: Given the molecule Cc1cc(C(N)=O)ccc1-c1cccc(C(O)CCN2CCC(=O)N2CCc2ccc(C(=O)O)cc2)c1 (single isomer, unassigned) [2; isomer 2] , what is its reported Caco-2 Mean Papp A-B?
Result: <0.47 10^−6 cm/s

Query: Given the molecule Cc1cc(OS(N)(=O)=O)ccc1-c1cccc(C(O)CCN2CCC(=O)N2CCc2ccc(C(=O)O)cc2)c1 (single isomer, unassigned) [4; isomer 2] , what is its reported Caco-2 Mean Papp A-B?
Result: 0.67 10^−6 cm/s

Query: Given the molecule Cc1cc(S(N)(=O)=O)ccc1-c1cccc(C(O)CCN2CCC(=O)N2CCc2ccc(C(=O)O)cc2)c1 (single isomer, unassigned) [3; isomer 2] , what is its reported Caco-2 Mean Papp A-B?
Result: 0.72 10^−6 cm/s

Query: Given the molecule Cc1cc(S(N)(=O)=O)ccc1-c1cccc(C(O)CCN2CCC(=O)N2CCc2ccc(C(=O)O)cc2)c1 (single isomer, unassigned) [3; isomer 1] , what is its reported Caco-2 Mean Papp A-B?
Result: 0.23 10^−6 cm/s

Query: Given the molecule Cc1cc(C(N)=O)ccc1-c1cccc(C(O)CCN2CCC(=O)N2CCc2ccc(C(=O)O)c(O)c2)c1 (single isomer, unassigned) [7; isomer 2] , what is its reported Caco-2 Mean Papp A-B?
Result: <0.1 10^−6 cm/s

Sourced from patent US20260125347A1
